Target: Epidermal growth factor receptor (Homo sapiens) (UniProt P00533)
Sequence (P00533 whole entry, looked up): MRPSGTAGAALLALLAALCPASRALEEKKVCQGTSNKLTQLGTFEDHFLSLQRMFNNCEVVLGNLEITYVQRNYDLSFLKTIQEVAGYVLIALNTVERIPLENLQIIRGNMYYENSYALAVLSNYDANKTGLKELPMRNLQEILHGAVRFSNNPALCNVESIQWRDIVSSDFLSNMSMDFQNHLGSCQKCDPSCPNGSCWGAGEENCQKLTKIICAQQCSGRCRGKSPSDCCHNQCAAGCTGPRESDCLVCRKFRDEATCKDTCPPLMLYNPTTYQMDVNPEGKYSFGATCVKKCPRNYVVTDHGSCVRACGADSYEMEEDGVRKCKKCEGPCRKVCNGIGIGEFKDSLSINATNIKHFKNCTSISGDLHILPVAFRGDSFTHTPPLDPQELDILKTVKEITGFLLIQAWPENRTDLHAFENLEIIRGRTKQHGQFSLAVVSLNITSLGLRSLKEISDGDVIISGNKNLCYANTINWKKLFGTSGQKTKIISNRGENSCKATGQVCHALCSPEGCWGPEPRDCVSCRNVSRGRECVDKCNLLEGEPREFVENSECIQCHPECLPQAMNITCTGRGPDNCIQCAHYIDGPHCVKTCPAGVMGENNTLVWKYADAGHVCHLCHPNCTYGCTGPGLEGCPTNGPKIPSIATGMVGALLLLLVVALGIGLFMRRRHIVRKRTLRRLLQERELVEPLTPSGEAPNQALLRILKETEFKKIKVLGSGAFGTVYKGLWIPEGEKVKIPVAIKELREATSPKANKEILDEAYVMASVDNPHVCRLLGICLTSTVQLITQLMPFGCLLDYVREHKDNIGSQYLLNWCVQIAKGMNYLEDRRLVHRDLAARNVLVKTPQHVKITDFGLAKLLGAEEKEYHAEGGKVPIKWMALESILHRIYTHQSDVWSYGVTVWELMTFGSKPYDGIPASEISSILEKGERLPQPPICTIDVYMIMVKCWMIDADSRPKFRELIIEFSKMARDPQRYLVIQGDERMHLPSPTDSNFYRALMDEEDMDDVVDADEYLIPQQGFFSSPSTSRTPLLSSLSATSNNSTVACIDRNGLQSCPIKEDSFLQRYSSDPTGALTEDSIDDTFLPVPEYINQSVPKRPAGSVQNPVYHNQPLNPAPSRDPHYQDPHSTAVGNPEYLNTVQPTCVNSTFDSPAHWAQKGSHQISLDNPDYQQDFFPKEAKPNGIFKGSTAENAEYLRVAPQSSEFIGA
Assay: EGFR binders on small-molecule microarrays, primary screen, biochemical, small-molecule microarray, 635 nm fluorescence (AID 1104);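 also: score merges 667 nm emission intensity with spot signal to noise over triplicate slides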
Conditions: EGFR binding, higher = more signal
// reported composite z-score per item

Data request: Give the measured composite z-score of COc1ccc([Si](C)(C)[C@@H]2[C@@H](CC(=O)N3CCC[C@H]3CO)O[C@]3(C(=O)N(Cc4cccc(N5CCC5=O)c4)c4ccccc43)[C@H]2C)cc1 .
Data returned: 0.144

Data request: Give the measured composite z-score of C=CC[C@@H]1C=C[C@H](ON=Cc2ccc(C(=O)N3[C@H](c4ccc(C)cc4)[C@@H](C)CC[C@H]3C(=O)OC)cc2)[C@@H](CO)O1 .
Data returned: 0.475

Data request: Give the measured composite z-score of Cc1cc2c(nc1C)CCCN2CC(O)CN1CCN(C)CC1 (stereo unspecified) .
Data returned: 0.752

Data request: Give the measured composite z-score of CN1C(=O)C2C=CC(C(O)C(c3ccccc3)c3ccccc3)N(NC(=O)OC(C)(C)C)C2C1=O (stereo unspecified) .
Data returned: 0.341

Data request: Give the measured composite z-score of Cn1c(=O)n2n(c1=O)[C@H]1[C@H](O)[C@@H]3O[C@@H]3C(=NOC[C@@H](O)COCc3ccco3)[C@H]1CC2 .
Data returned: 0.475

Data request: Give the measured composite z-score of CC(=O)OC[C@H]1O[C@H](CCON=C(C)CCN2CCc3nc(-c4ccccc4)c(-c4ccccc4)cc3C2)C=C[C@@H]1OC(C)=O .
Data returned: 0.392

Data request: Give the measured composite z-score of CC(C)=CCCC(C)=CCON=C1C[C@@H](O)[C@@H](O)[C@@H]2[C@@H]3C(=O)N(C[C@@H]4CCCO4)C(=O)[C@@H]3CC[C@@H]12 .
Data returned: 1.15

---

Target: NADPH oxidase 5 (Homo sapiens)
Assay: NOX5-dependent H2O2 signal modulators, primary screen, NOX inhibitor project, cell-based, HEK293-NOX5, Amplex Red fluorescence (AID 1161)
Details: HEK293-NOX5, ionomycin, 45 min, higher = more signal
Metric name: z-score

                                   compound  observed_measurement
0  CCc1cc2c(nc1CC)CCN(CCC(C)=NOC[C@@H](O)[C@H]1O[C@@H]3OC(C)(C)O[C@@H]3[C@H]1O)C2                  2.57

Data request: Field: z-score (NADPH oxidase 5 (Homo sapiens)). Entry: CC(C)C[C@@H]1NC(=O)[C@H]2C[C@@H](C(=O)NCCCCCCN(C)C)[C@@H](c3cccc(OCCO)c3)N2C1=O
Data returned: 1.84

Data request: Field: z-score (NADPH oxidase 5 (Homo sapiens)). Entry: CC(CCN1CCc2nc(-c3ccccc3)c(-c3ccccc3)cc2C1)=NO[C@H](C)c1cn([C@@H]2COC[C@H]2O)nn1
Data returned: -0.331

Data request: Field: z-score (NADPH oxidase 5 (Homo sapiens)). Entry: COC(=O)C1=CCC(c2cccc(Cl)c2)O1 (centres undefined)
Data returned: -4.15

---

Test: binders of probe aFGF10 on microarray, primary screen, stem cell growth factor project, biochemical, small-molecule microarray, fluorescence 635/667 (AID 1071);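 also: score merges 667 nm spot intensity and signal to noise from triplicate slides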
Settings: higher = more signal
Assign class by composite z-score: not lower than 0.1 means satisfied; lower than 0.1 means not satisfied.

Data request: Confirm if composite z-score reported for the compound C/C=C\[C@@H](NCc1ccccc1Br)[C@@H](O)Cc1ccccc1 is 0.1 or above.
Data returned: not satisfied

Data request: Confirm if composite z-score reported for the compound O=C1CCCC2OC12C(O)CCc1ccccc1 (configuration not stated) is 0.1 or above.
Data returned: satisfied

Data request: Confirm if composite z-score reported for the compound CC(CCC(=O)OC[C@H]1O[C@H](C#Cc2ccccc2)C=C[C@@H]1Oc1ccc(C)cc1)=NOC[C@@H](O)[C@H]1O[C@@H]2OC(C)(C)O[C@@H]2[C@H]1O is 0.1 or above.
Data returned: not satisfied

Data request: Confirm if composite z-score reported for the compound CCN1C(=O)[C@H]2[C@H]3[C@H](O)[C@H](O)CC(=NOC(C)CN4CCCCc5nc(C)c(C)cc54)[C@@H]3CC[C@H]2C1=O (some centres not stated) is 0.1 or above.
Data returned: satisfied

Data request: Confirm if composite z-score reported for the compound CN1C(=O)[C@@]2(CCC(=O)OC(C)(C)C)N=C(c3ccc(OCCCO)cc3)O[C@H]2c2ccccc21 is 0.1 or above.
Data returned: satisfied

Data request: Confirm if composite z-score reported for the compound C=CCN1C(=O)[C@]2(O[C@H](CCn3cc(CCO)nn3)[C@@H]([Si](C)(C)c3ccc(OC)cc3)[C@@H]2C)c2cc(N3CCOC3=O)ccc21 is 0.1 or above.
Data returned: not satisfied

// provenance: PubChem BioAssay
